Test: LD50 of aminoglycoside antibiotics with and without phosphorylcholine, subcutaneous
Assay type: in vivo
Conditions: mouse, in vivo, sc, mg aminoglycoside antibiotic per kg body weight, Swiss Webster mice, survivors after 24 hours, read-out: LD₅₀
measured property: LD50 at 24 h (mg/kg)
Answers are plain numbers, in mg/kg.

In plain terms, [H]/N=C(/N)N[C@H]1[C@H](O)[C@@H](O)[C@H](O[C@@H]2O[C@@H](C)[C@](O)(C=O)[C@H]2O[C@@H]2O[C@@H](CO)[C@H](O)[C@@H](O)[C@@H]2NC)[C@@H](N/C(N)=N\[H])[C@@H]1O has a documented LD50 at 24 h of 741
